Molecular target: T1, CRBN, Q96SW2;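 further: pooled lentiviral library of zinc finger degron-EGFP fusions in mCherry-positive Jurkat cells, FACS-sorted after compound exposure, with degron abundance counted by next-generation sequencing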
T1 chain: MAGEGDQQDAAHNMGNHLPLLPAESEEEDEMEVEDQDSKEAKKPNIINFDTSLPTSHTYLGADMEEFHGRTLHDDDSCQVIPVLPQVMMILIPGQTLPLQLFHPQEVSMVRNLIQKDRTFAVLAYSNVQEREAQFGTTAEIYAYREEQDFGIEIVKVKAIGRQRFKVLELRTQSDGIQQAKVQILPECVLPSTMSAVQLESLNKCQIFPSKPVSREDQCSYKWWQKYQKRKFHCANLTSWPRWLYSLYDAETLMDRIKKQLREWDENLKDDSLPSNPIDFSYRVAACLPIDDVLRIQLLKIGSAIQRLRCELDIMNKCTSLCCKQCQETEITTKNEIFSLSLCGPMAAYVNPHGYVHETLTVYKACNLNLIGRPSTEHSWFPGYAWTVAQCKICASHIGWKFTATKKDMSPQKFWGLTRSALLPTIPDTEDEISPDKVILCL
Test: log2 fold change of degron read counts, EGFP-low vs EGFP+ sorted cells (limma voom), compound-induced degradation; higher = more compound-induced degradation of the degron-EGFP fusion; degrons are variants of IKZF1/3 zinc finger 2; compound dose not given here
Details: Jurkat; 18 h; compound: compound 22 (5-morpholino-thalidomide)
In all, about 8,300 sequences were measured (“log2 fold change of degron read counts, EGFP-low vs EGFP+ sorted cells (limma voom), compound-induced degradation”: median about -1.1, highest 2% from about 3.2 on). The sample as a whole holds a higher share of the highest values than the screen did.
The threshold is inclusive: log2 fold change of degron read counts of exactly -2 counts as TRUE; values below receive FALSE.

Past entries and their recorded results:
INSERT INTO results (item_sequence, label) VALUES
  ('FICNQCGAMFTQKGNLLRHIKL [46F_47I_49N_50Q_52G_53A_54M_55F_67L_, Q9UKT9]', 'FALSE'),
  ('FVCEICGRHFTQKGNLLRHIKL [46F_47V_49E_50I_52G_53R_54H_55F_67L_, Q9UKT9]', 'TRUE'),
  ('FHCPICGRQFTQKGNLLRHIKL [46F_47H_49P_50I_52G_53R_54Q_55F_67L_, Q9UKT9]', 'TRUE'),
  ('FLCPICGREFTQKGNLLRHIKL [46F_47L_49P_50I_52G_53R_54E_55F_67L_, Q9UKT9]', 'FALSE'),
  ('FCCEQCGANFTQKGNLLRHIKL [46F_47C_49E_50Q_52G_53A_54N_55F_67L_, Q9UKT9]', 'TRUE');

Query: Is reported log2 fold change of degron read counts greater than or equal to -2 here: FNCPICGAEFTQKGNLLRHIKL [46F_47N_49P_50I_52G_53A_54E_55F_67L_, Q9UKT9]
Response: TRUE

Just for reference, the supplement of paper PMC12645437 is where these values come from.
